test system: Sinapis; experiment: Post-emergent herbicidal action (contact herbicide); assay type: in vivo; parameters: key: 1=complete damage; 9=no action; Ratings of 1 to 4 (in particular 1 to 3) mean a good to very good herbicidal action; details: 2000 g of active substance/ha, sprayed in the 4- to 6-leaf stage, evaluated after about 18 days, ratings scale 1-9
Here the recorded Post-emergent action, rating, Sinapis is given for each entry.

| molecule | Post-emergent action, rating, Sinapis |
| --- | --- |
| CC1(C)CC2CC(C)(CN2S2=NC(N)=NC(Oc3c(F)c(F)c(F)c(F)c3F)=N2)C1 (single isomer, unassigned) [6.153] | 1 |
| CC1CC(NS2=NC(N)=NC(Oc3c(F)c(F)c(F)c(F)c3F)=N2)CC(C)(C)C1 (stereo not shown) | 2 |
| CCN(C1CC(C)CC(C)(C)C1)S1=NC(N)=NC(Oc2c(F)c(F)c(F)c(F)c2F)=N1 (stereo not shown) | 2 |
| CC1CN(S2=NC(N)=NC(Oc3c(F)c(F)c(F)c(F)c3F)=N2)C2CCCCC12 (stereo not shown) | 1 |
| NC1=NS(N2CCc3ccccc3C2)=NC(Oc2c(F)c(F)c(F)c(F)c2F)=N1 (stereo not shown) | 3 |
| CC1CN(S2=NC(N)=NC(Oc3c(F)c(F)c(F)c(F)c3F)=N2)CCC(C)(C)C1 (single isomer, unassigned) [6.93] | 1 |
| NC1=NC(Oc2cc(F)ccc2F)=NS(N2CCCC3CCCCC32)=N1 (stereo not shown) | 3 |
| CN(Cc1ccc(Cl)nc1)S1=NC(N)=NC(Oc2c(F)c(F)c(F)c(F)c2F)=N1 (stereo not shown) | 2 |
| CC1CC(C)CN(S2=NC(N)=NC(Oc3cc(F)ccc3F)=N2)C1 (stereo not shown) | 2 |
| NC1=NC(Oc2c(F)c(F)c(F)c(F)c2F)=NS(OCC23CC4CC(CC(C4)C2)C3)=N1 (stereo not shown) | 3 |
| NC1=NC(Oc2c(F)c(F)c(F)c(F)c2F)=NS(OC2CCCCCCC2)=N1 (stereo not shown) | 2 |
| CC1CCN(S2=NC(Oc3cc(F)ccc3F)=NC(N)=N2)CC(C)(C)C1 (stereo not shown) | 1 |
| CC(OS1=NC(N)=NC(Oc2c(F)c(F)c(F)c(F)c2F)=N1)[Si](C)(C)C (stereo not shown) | 1 |
| CC1N(S2=NC(N)=NC(Oc3c(F)c(F)c(F)c(F)c3F)=N2)CCCC1(C)C (stereo not shown) | 2 |
| NC1=NC(Oc2c(F)c(F)c(F)c(F)c2F)=NS(N2CCc3ccccc3CC2)=N1 (stereo not shown) | 2 |
| CC1CC2CCCCC2N1S1=NC(N)=NC(Oc2c(F)c(F)c(F)c(F)c2F)=N1 (stereo not shown) | 1 |
